- Tested on: 786-O
- Experiment Notes: Euclidean distance of Cell Painting phenotypic profile (signed KS, 77 features) to DMSO centroid (dimensionless distance); 5 or 10 uM (library dependent); higher = stronger phenotypic change vs DMSO (phenoactivity)
- Experimental Setup: 48 h
Structures can show the parent of a compound that is named as a salt.
Quantity Name: Euclidean distance
Reply with just the number.

Dear colleague, I am looking for the recorded Euclidean distance of the following molecule: CCOC(=O)[C@H](CCc1ccccc1)N[C@@H](C)C(=O)N1C(=O)N(C)C[C@H]1C(=O)O [Imidapril HCl]
0.604

Dear colleague, I am looking for the recorded Euclidean distance of the following molecule: O=c1[nH]cnc2c1ncn2[C@H]1CC[C@@H](CO)O1
1.21

Dear colleague, I am looking for the recorded Euclidean distance of the following molecule: NNc1nncc2ccccc12 [Hydralazine HCl]
1.33

Dear colleague, I am looking for the recorded Euclidean distance of the following molecule: S=C(N/N=C1/CCCc2cccnc21)N1CCN(c2ccccn2)CC1
3.03

Dear colleague, I am looking for the recorded Euclidean distance of the following molecule: COCCNCc1ccc(-c2cc3nccc(Oc4ccc(NC(=O)C5(C(=O)Nc6ccc(F)cc6)CC5)cc4F)c3s2)nc1
5.08

Dear colleague, I am looking for the recorded Euclidean distance of the following molecule: CN(C)Cc1ccc(S(=O)(=O)n2ccc(/C=C/C(=O)NO)c2)cc1
2.67

Dear colleague, I am looking for the recorded Euclidean distance of the following molecule: CNCC(=O)O
1.77

Dear colleague, I am looking for the recorded Euclidean distance of the following molecule: CCOC(=O)c1ccc(N)cc1 [Benzocaine hydrochloride]
0.675

Dear colleague, I am looking for the recorded Euclidean distance of the following molecule: COc1cc2ncnc(Nc3ccc(F)c(Cl)c3)c2cc1OCCCN1CCOCC1 [Gefitinib (ZD1839)]
2.03

Dear colleague, I am looking for the recorded Euclidean distance of the following molecule: C[C@]12CC[C@H](O)CC1=CC[C@@H]1[C@@H]2CC[C@]2(C)C(n3cnc4ccccc43)=CC[C@@H]12
0.604

Dear colleague, I am looking for the recorded Euclidean distance of the following molecule: CCN(CC)C(=O)Nc1ccc(OCC(O)CNC(C)(C)C)c(C(C)=O)c1 (stereo unspecified) [Celiprolol hydrochloride]
0.816

Dear colleague, I am looking for the recorded Euclidean distance of the following molecule: CC(=O)NO [Acetohydroxamic acid]
1.37

Dear colleague, I am looking for the recorded Euclidean distance of the following molecule: N[C@@H](Cc1cc(I)c(Oc2cc(I)c(O)c(I)c2)c(I)c1)C(=O)O
1.38

Dear colleague, I am looking for the recorded Euclidean distance of the following molecule: Clc1ccc(C(Cn2ccnc2)OCc2ccsc2Cl)c(Cl)c1 (stereo unspecified)
1.07

Dear colleague, I am looking for the recorded Euclidean distance of the following molecule: CN[C@@H]1[C@H](O)[C@H](NC)[C@H]2O[C@@]3(O)C(=O)C[C@@H](C)O[C@H]3O[C@@H]2[C@H]1O [Spectinomycin 2HCl]
1.1

Dear colleague, I am looking for the recorded Euclidean distance of the following molecule: CCOc1ccc2c(c1)C(C)=CC(C)(C)N2
0.933

Dear colleague, I am looking for the recorded Euclidean distance of the following molecule: CCN1CCN(Cc2ccc(Nc3ncc(F)c(-c4cc(F)c5nc(C)n(C(C)C)c5c4)n3)nc2)CC1
5.75

Dear colleague, I am looking for the recorded Euclidean distance of the following molecule: COc1cc(N2CCC(N3CCN(C)CC3)CC2)ccc1Nc1ncc(Cl)c(Nc2ccccc2S(=O)(=O)C(C)C)n1
2.54

Dear colleague, I am looking for the recorded Euclidean distance of the following molecule: Cc1csc(-c2nnc(Nc3ccc(Oc4ncccc4-c4ccnc(N)n4)cc3)c3ccccc23)c1
3.06

Dear colleague, I am looking for the recorded Euclidean distance of the following molecule: COc1cc2nccc(Oc3ccc(NC(=O)Nc4cc(C)on4)c(Cl)c3)c2cc1OC
2.03

Dear colleague, I am looking for the recorded Euclidean distance of the following molecule: O=C1Nc2ccc(I)cc2/C1=C/c1cc(Br)c(O)c(Br)c1
1.58

Dear colleague, I am looking for the recorded Euclidean distance of the following molecule: CCCN[C@H]1CCc2nc(N)sc2C1 [Pramipexole 2HCl Monohydrate]
0.779

Dear colleague, I am looking for the recorded Euclidean distance of the following molecule: COc1cc(NC(=O)c2ccc(-c3ccc(Cl)cc3)o2)cc(OC)c1
0.91

Dear colleague, I am looking for the recorded Euclidean distance of the following molecule: Cc1c(OCC(F)(F)F)ccnc1C[S@@+]([O-])c1nc2ccccc2[nH]1
0.708

Dear colleague, I am looking for the recorded Euclidean distance of the following molecule: CNC[C@H](O)[C@@H](O)[C@H](O)[C@H](O)CO
1.78

Dear colleague, I am looking for the recorded Euclidean distance of the following molecule: OC[C@@H](O)[C@@H](O)[C@H](O)[C@H](O)CO
1.14
